Would you kindly list inhibition at 1 µM for each of these compounds?
# TEST SYSTEM: RORγt (Homo sapiens)
# Sequence (P51449 1-497 isoform P51449-2, species assumed): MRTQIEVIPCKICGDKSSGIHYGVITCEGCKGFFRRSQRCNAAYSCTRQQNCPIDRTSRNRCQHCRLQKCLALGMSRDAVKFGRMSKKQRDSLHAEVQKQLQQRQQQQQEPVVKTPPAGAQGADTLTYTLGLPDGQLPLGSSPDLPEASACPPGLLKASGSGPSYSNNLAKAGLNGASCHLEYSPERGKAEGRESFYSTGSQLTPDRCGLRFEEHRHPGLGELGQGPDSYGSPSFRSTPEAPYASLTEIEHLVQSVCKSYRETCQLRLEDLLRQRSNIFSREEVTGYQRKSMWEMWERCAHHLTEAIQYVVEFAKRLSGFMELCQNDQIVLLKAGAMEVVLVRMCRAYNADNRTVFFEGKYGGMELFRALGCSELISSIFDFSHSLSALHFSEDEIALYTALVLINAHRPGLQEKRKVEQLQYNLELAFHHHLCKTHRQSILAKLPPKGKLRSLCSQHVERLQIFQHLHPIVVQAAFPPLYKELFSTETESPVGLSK
# PROTOCOL NOTES: RORγt binding test using fluorescent-labeled synthetic ligand (TR-FRET)
# APPLIED CONDITIONS: read-out: Binding inhibitory rate of fluorescent-labeled synthetic ligand to RORγt at test compound 1 μM (%)
Write the quantity with the unit trailing the number.

Use the examples below as a reference point.
1) CCOc1ccc2c(c1)CCN(C(=O)CCCCC(=O)O)[C@H]2C(=O)Nc1ccc([Si](C)(C)C)c(F)c1 ... 101%
2) COc1ccc2c(c1)CCN(C(=O)Cc1cc(O)no1)[C@H]2C(=O)Nc1cc(F)c(C(C)(C)C)c(F)c1 ... 102%
3) COc1ccc2c(n1)CCN(C(=O)Cc1cc(O)no1)[C@H]2C(=O)Nc1ccc(C(C)(C)C)c(F)c1 ... 102%
4) CCOc1ccc2c(c1)CCN(C(=O)CCCC(=O)O)[C@H]2C(=O)Nc1cc(F)c([Si](C)(C)C)cc1F ... 101%
5) COc1ccc2c(n1)CCN(C(=O)Cc1cc(O)no1)[C@H]2C(=O)Nc1ccc([Si](C)(C)C)c(F)c1 ... 102%

For each of the compounds below, state inhibition at 1 µM.
1. COc1ccc2c(c1)CCN(C(=O)Cc1cc(O)no1)[C@H]2C(=O)Nc1ccc(C(C)(C)C)c(C#N)c1
2. COc1ccc2c(c1)CCN(C(=O)Cc1cccnc1)[C@H]2C(=O)Nc1cc(F)c(C(C)(C)C(=O)N2CCCC2)c(F)c1
3. COCC(C)(C)c1c(F)cc(NC(=O)[C@H]2c3ccc(OC)cc3CCN2C(=O)c2cc(O)no2)cc1F
4. CCOCC(C)(C)c1c(F)cc(NC(=O)[C@H]2c3ccc(OC)cc3CCN2C(=O)Cc2cc(O)no2)cc1F
5. CCOCC(C)(C)c1c(F)cc(NC(=O)[C@H]2c3ccc(OC)cc3CCN2C(=O)c2cc(O)no2)cc1F
6. COCc1ccc2c(c1)CCN(C(=O)Cc1cc(O)no1)[C@H]2C(=O)Nc1cc(F)c([Si](C)(C)C)c(F)c1

["101%", "101%", "101%", "102%", "101%", "101%"]
